Would you kindly list logD for each of these molecules?
assay summary: Log D (pH7.4 shake flask)
Format: physicochemical
experimental context: pH 7.4; 1-octanol/phosphate buffer shake flask; read-out: mLogD (pH 7.4)

These solved cases illustrate the format of a correct answer.
// query Given the molecule `CC(C)(C#N)NC(=O)c1cc(NC(=O)Cc2cc(O)c(C(C)(C)C)cc2F)ccn1` , what is its reported logD?
// result > 4.1

// query Given the molecule `CC(C)(C)NC(=O)c1cc(NC(=O)Cc2cc(O)c(C3(C)CC3)cc2F)ccn1` , what is its reported logD?
// result > 4

Now for another entry.
// query Given the molecule `CC(C)(CO)c1cc(F)c(CC(=O)Nc2ccnc(C(=O)NC3(C(F)(F)F)CC3)c2)cc1O` , what is its reported logD?
// result 3.2
